This collection of values is drawn from ChEMBL document CHEMBL1137385.

Tested on: Mus musculus
PROTOCOL SUMMARY: Drug level in brain of C57/BL6 APP-YAC mouse model at 100 mg/kg, iv
Format: ADME, organism-based, C57Bl/6
Parameters: dose 100 mg/kg, route intravenous
TEST CONTEXT: in vivo, read-out: Drug uptake
MEASUREMENT KIND: concentration (nM)

| MOLECULE SMILES | MEASUREMENT KIND | ENDPOINT VALUE |
| --- | --- | --- |
| CCCC[C@H](NC[C@@H]1Cc2cccc(c2)CCCCc2cc(cc(N(CCC)S(C)(=O)=O)c2)C(=O)N1)C(=O)NCC(C)C | concentration | 1100 |
